Tested on: LNCaP
EXPERIMENTAL_DETAILS: Antiproliferative activity against human LNCAP cells assessed as reduction in cell growth incubated for 96 hrs by propidium iodide based 2D monolayer assay
Type: functional
MEASUREMENT_KIND: pIC50
In simple prose, pIC50 is minus the logarithm base ten of a concentration in moles per litre.

Solved entries (count: 3):
- CC1(C)C(=O)N(c2ccc([N+](=O)[O-])cc2C(F)(F)F)C(=S)N1c1cccc(S(F)(F)(F)(F)F)c1: 5.28
- CC(O)(CS(=O)(=O)c1ccccc1C(F)(F)F)C(=O)Nc1ccc(S(F)(F)(F)(F)F)cc1 (racemic): 4.97
- CC(O)(COc1ccc(S(F)(F)(F)(F)F)cc1)C(=O)Nc1cccc(S(F)(F)(F)(F)F)c1 (racemic): 5.10

Respond only with pIC50 recorded for CC(O)(CS(=O)(=O)c1ccc(OC(F)(F)F)cc1)C(=O)Nc1cccc(S(F)(F)(F)(F)F)c1 (racemic)
4.97

Respond only with pIC50 recorded for CC(O)(COc1ccc(C#N)cc1)C(=O)Nc1ccc(S(F)(F)(F)(F)F)cc1 (racemic)
4.00

Respond only with pIC50 recorded for CNC(=O)c1ccc(N2C(=S)N(c3cccc(S(F)(F)(F)(F)F)c3)C(=O)C2(C)C)cc1F
4.60

Respond only with pIC50 recorded for CC(O)(CS(=O)(=O)c1cc(C(F)(F)F)cc(C(F)(F)F)c1)C(=O)Nc1ccc(S(F)(F)(F)(F)F)cc1 (racemic)
4.88

Respond only with pIC50 recorded for CC(O)(COc1ccc(C#N)c(F)c1)C(=O)Nc1ccc(S(F)(F)(F)(F)F)cc1 (racemic)
4.00

Respond only with pIC50 recorded for CC(O)(CS(=O)(=O)c1cccc(OC(F)(F)F)c1)C(=O)Nc1cccc(S(F)(F)(F)(F)F)c1 (racemic)
4.82
